Data provenance is ChEMBL document CHEMBL1143666.

Quick reference for pIC50 among some compounds
Test system: HT-29
Test: Antiproliferative activity against human HT29 cells
Format: functional, cell-based
pIC50: −log10 of the molar value.
MEASURED PARAMETER: pIC50

>>> result_value("COc1c(C)cnc(Cn2cnc3c(Cl)nc(N)nc32)c1C.Cl")
6.89
>>> result_value("CSc1c(C)cnc(Cn2cnc3c(Cl)nc(N)nc32)c1C")
6.70
>>> result_value("Cc1cnc(Cn2cnc3c(Cl)nc(N)nc32)c(C)c1Br")
6.89
>>> result_value("Cc1cnc(Cn2cnc3c(Cl)nc(N)nc32)c(C)c1Cl")
6.30
>>> result_value("Cc1cnc(Cn2cnc3c(Cl)nc(N)nc32)c(C)c1I")
7.64

###

Molecular target: Heat shock protein HSP90 (Homo sapiens, UniProt P07900+P08238)
Details: mcf7
Description: Inhibition of human recombinant HSP90 in MCF7 cells assessed as Her2 degradation
Label key: Satisfied means IC50 under 90 nM; Not satisfied means IC50 of 90 nM or more.

>>> group_label("Cc1cnc(Cn2cnc3c(Cl)nc(N)nc32)c(C)c1OC(C)C")
"Not satisfied"
>>> group_label("Cc1cnc(Cn2cnc3c(Cl)nc(N)nc32)c(C)c1C")
"Satisfied"
>>> group_label("COc1cc(Cn2cnc3cnc(N)nc32)c(Br)c(OC)c1OC")
"Not satisfied"
>>> group_label("COc1cc(Cn2cnc3c(Cl)nc(N)nc32)cc(OC)c1OC")
"Not satisfied"
>>> group_label("CCOc1c(C)cnc(Cn2cnc3c(Cl)nc(N)nc32)c1C")
"Not satisfied"
>>> group_label("COc1c(C)ncc(Cn2cnc3c(Cl)nc(N)nc32)c1C.Cl")
"Satisfied"
>>> group_label("COc1cc(Cn2cnc3c(OC)nc(N)nc32)c(Br)c(OC)c1OC")
"Not satisfied"
>>> group_label("Cc1cnc(Cn2cnc3c(Cl)nc(N)nc32)c(C)c1Cl")
"Satisfied"
>>> group_label("COc1cc(Cn2cnc3c(C)nc(N)nc32)c(Cl)c(OC)c1OC")
"Not satisfied"
>>> group_label("Cc1cnc(Cn2cnc3c(Cl)nc(N)nc32)c(C)c1Br")
"Satisfied"
>>> group_label("COc1cc(Cn2cnc3c(Cl)nc(N)nc32)c(Br)c(OC)c1OC")
"Satisfied"
>>> group_label("Cc1cnc(Cn2cnc3c(Cl)nc(N)nc32)c(C)c1I")
"Satisfied"
>>> group_label("COc1c(C)c[n+]([O-])c(Cn2cnc3c(Cl)nc(N)nc32)c1C")
"Satisfied"
>>> group_label("COc1cc(Cn2cnc3c(Cl)nc(N)nc32)c(I)c(OC)c1OC")
"Not satisfied"
